Origin of the recorded values: patent US5668152A

Target: UniProtKB P05771
Sequence (P05771 whole entry): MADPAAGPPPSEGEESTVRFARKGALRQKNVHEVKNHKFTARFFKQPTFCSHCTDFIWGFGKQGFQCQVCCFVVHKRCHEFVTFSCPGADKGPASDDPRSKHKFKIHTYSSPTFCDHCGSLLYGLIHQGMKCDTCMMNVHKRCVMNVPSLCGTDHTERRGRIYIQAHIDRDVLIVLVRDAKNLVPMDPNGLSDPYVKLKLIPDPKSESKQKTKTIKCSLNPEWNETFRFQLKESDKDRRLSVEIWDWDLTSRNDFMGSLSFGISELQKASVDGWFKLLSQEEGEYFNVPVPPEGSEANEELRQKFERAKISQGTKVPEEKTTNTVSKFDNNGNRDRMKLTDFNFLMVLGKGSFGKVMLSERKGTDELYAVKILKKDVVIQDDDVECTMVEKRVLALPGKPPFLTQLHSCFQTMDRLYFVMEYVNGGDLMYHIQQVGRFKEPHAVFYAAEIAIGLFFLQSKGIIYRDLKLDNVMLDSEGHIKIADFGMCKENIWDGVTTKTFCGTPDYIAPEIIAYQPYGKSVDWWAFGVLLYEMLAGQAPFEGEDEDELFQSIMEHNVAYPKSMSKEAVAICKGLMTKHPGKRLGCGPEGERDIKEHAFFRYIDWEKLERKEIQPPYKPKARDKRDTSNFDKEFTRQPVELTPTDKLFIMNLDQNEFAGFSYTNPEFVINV
Experiment: PKC Enzyme assay, beta I isozyme
Type: biochemical
Conditions: PKC beta-1; 30 μM ATP, 30° C., 10 minutes; read-out: IC50 β1
Answer each item with its documented IC50.

Task item: // query IC50 value for entry O=C1NC(=O)C(c2cn(Cc3ccccc3)c3ccccc23)=C1c1c[nH]c2ccccc12 [Example 14]
Reply: 1150 nM

Task item: // query IC50 value for entry CN1CCC(n2cc(C3=C(c4cn(C)c5ccccc45)C(=O)NC3=O)c3ccccc32)CC1 [Example 42]
Reply: 20 nM

Task item: // query IC50 value for entry Cn1cc(C2=C(c3cn(CCO[C@@H]4O[C@H](CN=[N+]=[N-])[C@H](O)[C@H](O)[C@H]4O)c4ccccc34)C(=O)NC2=O)c2ccccc21 [Example 57]
Reply: 1600 nM

Task item: // query IC50 value for entry CC(=O)N1CCC(n2cc(C3=C(c4cn(C)c5ccccc45)C(=O)NC3=O)c3ccccc32)CC1 [Example 37]
Reply: 9 nM

Task item: // query IC50 value for entry Cn1cc(C2=C(c3c4n(c5ccccc35)CCC(CO)(CO)C4)C(=O)NC2=O)c2ccccc21 [Example 2]
Reply: 70 nM

Task item: // query IC50 value for entry CC(=O)OCC1(COC(C)=O)CCn2c(c(C3=C(c4cn(C)c5ccccc45)C(=O)NC3=O)c3ccccc32)C1 [Example 1]
Reply: 360 nM

Task item: // query IC50 value for entry Cn1cc(C2=C(c3cn(C4CCN(C(=N)N)CC4)c4ccccc34)C(=O)NC2=O)c2ccccc21 [Example 44]
Reply: 5 nM

Task item: // query IC50 value for entry CN1CCC(n2cc(C3=C(c4c[nH]c5ccccc45)C(=O)NC3=O)c3ccccc32)CC1 [Example 51]
Reply: 20 nM

Task item: // query IC50 value for entry Cn1cc(C2=C(c3cn(C4CCN(c5ccccn5)CC4)c4ccccc34)C(=O)NC2=O)c2ccccc21 [Example 48]
Reply: 50 nM

Task item: // query IC50 value for entry CC(C)N1CCC(n2cc(C3=C(c4cn(C)c5ccccc45)C(=O)NC3=O)c3ccccc32)CC1 [Example 8]
Reply: 19 nM

Task item: // query IC50 value for entry Cn1cc(C2=C(c3c4n(c5ccccc35)CCC(CO)C4)C(=O)NC2=O)c2ccccc21 (stereo not drawn) [Example 9]
Reply: 14 nM

Task item: // query IC50 value for entry CC(=O)NCC1OC(OCCCCn2cc(C3=C(c4cn(C)c5ccccc45)C(=O)N(C(C)=O)C3=O)c3ccccc32)CC1OC(C)=O (stereo not drawn) [Example 70]
Reply: 320 nM

Task item: // query IC50 value for entry CC(=O)NC[C@H]1O[C@H](OCCn2cc(C3=C(c4cn(C)c5ccccc45)C(=O)NC3=O)c3ccccc32)C[C@@H]1O [Example 3]
Reply: 36 nM

Task item: // query IC50 value for entry CCOC(=O)N1CCC(Cn2cc(C3=C(c4cn(C)c5ccccc45)C(=O)NC3=O)c3ccccc32)CC1 [Example 69]
Reply: 390 nM

Task item: // query IC50 value for entry Cn1cc(C2=C(c3cn(C4CCN(CC5CC5)CC4)c4ccccc34)C(=O)NC2=O)c2ccccc21 [Example 39]
Reply: 30 nM

====

Answer each item with its documented pIC50.
Biological target: protein kinase C delta (Homo sapiens, UniProt Q05655)
Sequence (Q05655 whole entry): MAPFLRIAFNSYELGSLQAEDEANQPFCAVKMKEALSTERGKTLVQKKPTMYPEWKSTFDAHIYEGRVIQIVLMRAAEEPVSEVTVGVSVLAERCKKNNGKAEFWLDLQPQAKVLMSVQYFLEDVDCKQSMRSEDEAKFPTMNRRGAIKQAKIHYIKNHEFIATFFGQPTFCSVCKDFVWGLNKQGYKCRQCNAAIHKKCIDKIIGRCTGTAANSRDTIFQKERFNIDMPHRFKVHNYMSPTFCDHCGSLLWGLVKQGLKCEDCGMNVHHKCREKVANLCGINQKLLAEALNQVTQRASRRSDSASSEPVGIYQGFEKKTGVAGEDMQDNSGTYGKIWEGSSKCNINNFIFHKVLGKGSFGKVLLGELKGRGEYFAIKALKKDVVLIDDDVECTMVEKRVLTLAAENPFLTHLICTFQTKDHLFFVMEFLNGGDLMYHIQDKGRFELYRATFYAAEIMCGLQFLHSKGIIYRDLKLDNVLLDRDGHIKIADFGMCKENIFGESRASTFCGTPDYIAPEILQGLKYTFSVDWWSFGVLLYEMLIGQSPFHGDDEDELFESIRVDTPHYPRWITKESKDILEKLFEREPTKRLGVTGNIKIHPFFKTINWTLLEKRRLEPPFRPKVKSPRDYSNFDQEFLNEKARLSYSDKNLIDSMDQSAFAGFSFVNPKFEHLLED
Experiment: biochemical
Conditions: PKC delta; 30 μM ATP, 30° C., 10 minutes; read-out: IC50 δ
Scale explanation: pIC50 corresponds to minus log10 of a concentration expressed in moles per litre.

Task item: // query pIC50 value for entry "CCOC(=O)N1CCC(Cn2cc(C3=C(c4cn(C)c5ccccc45)C(=O)NC3=O)c3ccccc32)CC1"
Reply: 5.14

Task item: // query pIC50 value for entry "O=C1NC(=O)C(c2cn(CCCO)c3ccccc23)=C1c1c[nH]c2ccccc12"
Reply: 6.39

Task item: // query pIC50 value for entry "Cn1cc(C2=C(c3cn(C4CCN(CC5CC5)CC4)c4ccccc34)C(=O)NC2=O)c2ccccc21"
Reply: 6.40

Task item: // query pIC50 value for entry "CC(=O)OCC1(COC(C)=O)CCn2c(c(C3=C(c4cn(C)c5ccccc45)C(=O)NC3=O)c3ccccc32)C1"
Reply: 4.33

Task item: // query pIC50 value for entry Cn1cc(C2=C(c3cn(CCOC4O[C@H](CO)[C@@H](O)[C@@H](N)[C@H]4O)c4ccccc34)C(=O)NC2=O)c2ccccc21 (stereo partly shown)
Reply: 5.39

Task item: // query pIC50 value for entry "CC(C)(C)OC(=O)N1CCC(n2cc(C3=C(c4c[nH]c5ccccc45)C(=O)NC3=O)c3ccccc32)CC1"
Reply: 5.39

Task item: // query pIC50 value for entry "CCOC(=O)CN1CCC(n2cc(C3=C(c4cn(C)c5ccccc45)C(=O)NC3=O)c3ccccc32)CC1"
Reply: 5.52
